system: 188146-221-R-J1-PDC complex spheroid viability; test: Anticancer human tumor 188146-221-R-J1-PDC patient-derived colon adenocarcinoma cell line growth inhibition [POLQ]; conditions: second compound 1 µM; first compound 0.0316 µM; stronger effect = lower value
Reported viability, T/C by item:
Numeric answer only, unit % assumed.

In the examples that follow, each entry is paired with its recorded viability, T/C.
Find the recorded viability, T/C belonging to COc1ccc([C@@H](O)c2cc(-c3ncnc4cc(N5CCOCC5)ccc34)c(F)cc2Cl)nn1 + COC1C(OC(N)=O)C(O)C(Oc2ccc3c(O)c(NC(=O)c4ccc(O)c(CC=C(C)C)c4)c(=O)oc3c2C)OC1(C)C and report it. 96

Record: COc1cccc(OCCCN)c1-c1cc(Nc2cnc(C#N)cn2)n[nH]1 + COC1C(OC(N)=O)C(O)C(Oc2ccc3c(O)c(NC(=O)c4ccc(O)c(CC=C(C)C)c4)c(=O)oc3c2C)OC1(C)C 47.6

Follow-up item: CC[C@@]1(O)C(=O)OCc2c1cc1n(c2=O)Cc2cc3c(CN(C)C)c(O)ccc3nc2-1 + Cc1cccc(N(C)C(=O)C2C(O)CCN2c2nc(C)cc(C(F)(F)F)c2C#N)c1 97.9

Thanks! And CCCS(=O)(=O)Nc1ccc(F)c(C(=O)c2c[nH]c3ncc(-c4ccc(Cl)cc4)cc23)c1F + COC1C(OC(N)=O)C(O)C(Oc2ccc3c(O)c(NC(=O)c4ccc(O)c(CC=C(C)C)c4)c(=O)oc3c2C)OC1(C)C ? 100

Proceeding to the next compound to report its viability, T/C.
Which viability, T/C is listed for CCCS(=O)(=O)Nc1ccc(F)c(C(=O)c2c[nH]c3ncc(-c4ccc(Cl)cc4)cc23)c1F + Nc1ccc(C#CCN(C(=O)Cc2ncc(C(F)(F)F)cc2C(F)(F)F)c2ccc(F)cc2)nn1 ? 95.9

---

system: 188146-221-R-J1-PDC complex spheroid viability; assay: Anticancer human tumor 188146-221-R-J1-PDC cell line growth inhibition [POLQ]; conditions: curve of first compound; second compound 3.16 µM;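 note: spheroids exposed to compounds for seven days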
The reader will find reported pIC50 values listed item by item below.
Please note pIC50 is a logarithmic value: minus log10 of concentration in mol/L. Answer with that number alone.

Given the compound COc1ccc([C@@H](O)c2cc(-c3ncnc4cc(N5CCOCC5)ccc34)c(F)cc2Cl)nn1 + Nc1ccc(C#CCN(C(=O)Cc2ncc(C(F)(F)F)cc2C(F)(F)F)c2ccc(F)cc2)nn1 , what is its reported pIC50? 5.13

Others:
Item under review: COc1cccc(OCCCN)c1-c1cc(Nc2cnc(C#N)cn2)n[nH]1 + Nc1ccc(C#CCN(C(=O)Cc2ncc(C(F)(F)F)cc2C(F)(F)F)c2ccc(F)cc2)nn1 . Reported pIC50? 7.43

---

test system: 188146-221-R-J1-PDC complex spheroid viability; assay: Anticancer human tumor 188146-221-R-J1-PDC cell line growth inhibition [POLQ]; settings: second compound 0.0316 µM; first compound 0.0316 µM; stronger effect = lower value;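 note: spheroids exposed to compounds for seven days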;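 for viability, T/C: 100% = DMSO vehicle control viability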
Experimental readout: viability, T/C

What value of measured viability, T/C is listed for O=c1[nH]cc(F)c(=O)[nH]1 + Cc1cccc(N(C)C(=O)C2C(O)CCN2c2nc(C)cc(C(F)(F)F)c2C#N)c1 ? 107%

---
Fill blank: measured viability, T/C of the compound Cn1ncnc1[C@H]1c2n[nH]c(=O)c3cc(F)cc(c23)N[C@@H]1c1ccc(F)cc1 + Nc1ccc(C#CCN(C(=O)Cc2ncc(C(F)(F)F)cc2C(F)(F)F)c2ccc(F)cc2)nn1 is ____. 98.7%

Same again, this time with COc1cccc2c1C(=O)c1c(O)c3c(c(O)c1C2=O)CC(O)(C(=O)CO)CC3OC1CC(N)C(O)C(C)O1 (stereo not given) + COC1C(OC(N)=O)C(O)C(Oc2ccc3c(O)c(NC(=O)c4ccc(O)c(CC=C(C)C)c4)c(=O)oc3c2C)OC1(C)C 90.2%

Ok, now CCc1cc2c(N3CCc4c(cc(Cn5ccnc5)cc4-c4cn(C)nc4C(F)(F)F)C3=O)ccnc2c(OC)n1 + Cc1cccc(N(C)C(=O)C2C(O)CCN2c2nc(C)cc(C(F)(F)F)c2C#N)c1 90.5%

And for CNCc1ccc(-c2[nH]c3cc(F)cc4c3c2CCNC4=O)cc1 + COC1C(OC(N)=O)C(O)C(Oc2ccc3c(O)c(NC(=O)c4ccc(O)c(CC=C(C)C)c4)c(=O)oc3c2C)OC1(C)C ? 111%

---

Test system: 188146-221-R-J1-PDC complex spheroid viability
Assay: Anticancer human tumor 188146-221-R-J1-PDC cell line growth inhibition [POLQ];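 note: spheroids exposed to compounds for seven days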;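 for viability, T/C: 100% = DMSO vehicle control viability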
Conditions: second compound 0.0316 µM; first compound 0.0316 µM; stronger effect = lower value
Procedure: Multicellular complex tumor spheroid response to Polymerase (POL) inhibitors (novobiocin, ART-558, RP6685) in combination with a variety of drugs and investigational agents in selected tumor cell lines The POL inhibitors (novobiocin, ART-558, and RP6685) were evaluated both individually and in combination with standard of care and investigational anticancer small molecules within a complex spheroid model of solid tumors. . […]
Entries and their viability, T/C
Hi! Could you send only the number? It should be in %, unit omitted.

Any idea what its viability, T/C is? The molecule is COc1ccc([C@@H](O)c2cc(-c3ncnc4cc(N5CCOCC5)ccc34)c(F)cc2Cl)nn1 + Cc1cccc(N(C)C(=O)C2C(O)CCN2c2nc(C)cc(C(F)(F)F)c2C#N)c1 97.6

Next:
Entry CC(C)n1c(=O)n(C)c2cnc3cc(F)c(-c4ccc(OCCCN5CCCCC5)nc4)cc3c21 + COC1C(OC(N)=O)C(O)C(Oc2ccc3c(O)c(NC(=O)c4ccc(O)c(CC=C(C)C)c4)c(=O)oc3c2C)OC1(C)C has what viability, T/C? 103

// query: COc1cc2cc(C(=O)CCC(=O)O)sc2cc1OC + Cc1cccc(N(C)C(=O)C2C(O)CCN2c2nc(C)cc(C(F)(F)F)c2C#N)c1 95.5

---

system: 188146-221-R-J1-PDC complex spheroid viability; test: Anticancer human tumor 188146-221-R-J1-PDC cell line growth inhibition [POLQ]; details: second compound 0.1 µM; first compound 0.001 µM; stronger effect = lower value;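 note: spheroids exposed to compounds for seven days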;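 for viability, T/C: 100% = DMSO vehicle control viability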
Experimental readout: viability, T/C (%)
Just the number please, in %, no unit attached.

What does the data say about its viability, T/C? Entry: CC[C@@]1(O)C(=O)OCc2c1cc1n(c2=O)Cc2cc3c(CN(C)C)c(O)ccc3nc2-1 + Cc1cccc(N(C)C(=O)C2C(O)CCN2c2nc(C)cc(C(F)(F)F)c2C#N)c1 99.6

---

system: 188146-221-R-J1-PDC complex spheroid viability; experiment: Anticancer human tumor 188146-221-R-J1-PDC cell line growth inhibition [POLQ]; settings: second compound 10 µM; first compound 1 µM; stronger effect = lower value;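 note: spheroids exposed to compounds for seven days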;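 for viability, T/C: 100% = DMSO vehicle control viability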
Experimental readout: viability, T/C (%)
Report the figure in % without appending any unit label.

Worked examples follow.
Return viability, T/C measured with 188146-221-R-J1-PDC complex spheroid viability given this molecule: CC(C)n1c(=O)n(C)c2cnc3cc(F)c(-c4ccc(OCCCN5CCCCC5)nc4)cc3c21 + Cc1cccc(N(C)C(=O)C2C(O)CCN2c2nc(C)cc(C(F)(F)F)c2C#N)c1 97.4

# repeat for COc1cccc(OCCCN)c1-c1cc(Nc2cnc(C#N)cn2)n[nH]1 + Nc1ccc(C#CCN(C(=O)Cc2ncc(C(F)(F)F)cc2C(F)(F)F)c2ccc(F)cc2)nn1 15.4

Similarly, O=c1[nH]cc(F)c(=O)[nH]1 + COC1C(OC(N)=O)C(O)C(Oc2ccc3c(O)c(NC(=O)c4ccc(O)c(CC=C(C)C)c4)c(=O)oc3c2C)OC1(C)C ? 53.3

***
Missing value: viability, T/C, 188146-221-R-J1-PDC complex spheroid viability, entry CC1COCCN1c1cc(C2(O)CC3CCC(C2)O3)c2cnn(-c3ccn[nH]3)c2n1 (stereo unspecified) + Nc1ccc(C#CCN(C(=O)Cc2ncc(C(F)(F)F)cc2C(F)(F)F)c2ccc(F)cc2)nn1 . Fill in? 21.1

Also CC1COCCN1c1cc(C2(S(C)(=N)=O)CC2)nc(-c2ccnc3[nH]ccc23)n1 (stereo unspecified) + Cc1cccc(N(C)C(=O)C2C(O)CCN2c2nc(C)cc(C(F)(F)F)c2C#N)c1 , if possible. 62

How about COc1cc2cc(C(=O)CCC(=O)O)sc2cc1OC + Cc1cccc(N(C)C(=O)C2C(O)CCN2c2nc(C)cc(C(F)(F)F)c2C#N)c1 ? 88.7

---

Consider the following compounds and their measured viability, T/C readings.
system: 188146-221-R-J1-PDC complex spheroid viability; assay: Anticancer human tumor 188146-221-R-J1-PDC cell line growth inhibition [POLQ]; details: second compound 3.16 µM; first compound 0.01 µM; stronger effect = lower value;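 note: spheroids exposed to compounds for seven days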;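 for viability, T/C: 100% = DMSO vehicle control viability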

Observe how each entry below is paired with its result.
Quick check: viability, T/C of COc1cccc(OCCCN)c1-c1cc(Nc2cnc(C#N)cn2)n[nH]1 + Cc1cccc(N(C)C(=O)C2C(O)CCN2c2nc(C)cc(C(F)(F)F)c2C#N)c1 ? 82.1%

Continue with Cn1ncnc1[C@H]1c2n[nH]c(=O)c3cc(F)cc(c23)N[C@@H]1c1ccc(F)cc1 + Nc1ccc(C#CCN(C(=O)Cc2ncc(C(F)(F)F)cc2C(F)(F)F)c2ccc(F)cc2)nn1 91.7%

Same question for CCc1c2c(nc3ccc(O)cc13)-c1cc3c(c(=O)n1C2)COC(=O)[C@]3(O)CC + Cc1cccc(N(C)C(=O)C2C(O)CCN2c2nc(C)cc(C(F)(F)F)c2C#N)c1 please. 73.7%

Next:
Look up viability, T/C: C=CCn1c(=O)c2cnc(Nc3ccc(N4CCN(C)CC4)cc3)nc2n1-c1cccc(C(C)(C)O)n1 + Nc1ccc(C#CCN(C(=O)Cc2ncc(C(F)(F)F)cc2C(F)(F)F)c2ccc(F)cc2)nn1 110%

# repeat for COc1cccc(OCCCN)c1-c1cc(Nc2cnc(C#N)cn2)n[nH]1 + Nc1ccc(C#CCN(C(=O)Cc2ncc(C(F)(F)F)cc2C(F)(F)F)c2ccc(F)cc2)nn1 85.1%
